// reported IC50 per item
molecular target: Wee1-like protein kinase (Homo sapiens); test: In Vitro Enzymatic Inhibitory Activity Assay: Experimental Reagents:Basic reaction buffer: 20 mM hydroxyethylpiperazine ethanesulfuric acid (pH 7.5), 10 mM magnesium chloride, 1 mM EGTA, 0.02% Brij35, 0.02 mg/mL bovine serum albumin, 0.1 mM Na3VO4, 2 mM DTT, 1% DMSOEnzyme: Wee-1 concentration is 150 nMMatrix: MBP concentration is 20 μMCompound Treatment:The tested compound was formulated into a 5 mM solution with 100% DMSO, and a 10 points 3-fold gradient dilution was performed with DMSO through an automated pipetting station epMotion 5070.Experiment Procedure:1. Fresh matrix configuration reaction buffer was prepared;2. The Wee-1 was added into the matrix solution and shaked gently;3. DMSO solution of the compound were added into the kinase reaction mixture using an acoustic technique (Echo 550; nanoliter range) and incubated for 20 minutes at room temperature;4. 33P-ATP (specific activity, 10 μCi/μL) was added into the reaction mixture to stimulate the reaction;5. Incubated for 2 hours at room temperature;6. Kinase activity was detected by filter-binding method.
Sequence (P30291 whole entry): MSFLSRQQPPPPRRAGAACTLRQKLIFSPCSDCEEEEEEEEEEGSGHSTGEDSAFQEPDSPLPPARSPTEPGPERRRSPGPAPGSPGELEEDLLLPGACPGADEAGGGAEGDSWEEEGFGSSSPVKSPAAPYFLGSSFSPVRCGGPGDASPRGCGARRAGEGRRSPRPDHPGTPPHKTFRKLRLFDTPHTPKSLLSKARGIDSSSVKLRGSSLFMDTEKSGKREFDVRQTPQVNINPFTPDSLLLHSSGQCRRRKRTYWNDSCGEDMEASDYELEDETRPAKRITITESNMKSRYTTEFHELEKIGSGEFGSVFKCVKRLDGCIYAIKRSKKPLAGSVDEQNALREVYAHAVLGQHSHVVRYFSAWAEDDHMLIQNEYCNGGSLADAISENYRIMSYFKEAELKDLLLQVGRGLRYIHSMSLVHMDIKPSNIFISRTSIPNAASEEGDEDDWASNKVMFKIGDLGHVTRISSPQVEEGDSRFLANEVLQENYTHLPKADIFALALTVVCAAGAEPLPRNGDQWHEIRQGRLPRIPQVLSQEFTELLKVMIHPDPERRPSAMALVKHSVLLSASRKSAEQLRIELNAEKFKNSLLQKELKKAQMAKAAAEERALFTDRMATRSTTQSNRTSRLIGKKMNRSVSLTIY
Answer with a number only, understood to be in nM.

The examples below pair each entry with its known result.
{"smiles-repr": "C=CCn1c(=O)c2cnc(Nc3ccc(N4CCC5(CCN(C)CC5)CC4)cc3)nc2n1-c1cnccn1", "display-unit": "nM", "IC50": 90.4}
{"smiles-repr": "C=CCn1c(=O)c2cnc(Nc3ccc(N4CCC5(CCN(C)CC5)CC4)cn3)nc2n1-c1cccc(C(C)(C)O)n1", "display-unit": "nM", "IC50": 64.6}

Please turn your attention to the following entry.
So what's the measured IC50 for this one? C=CCn1c2nc(Nc3ccc(N4CCC5(CCN(C)CC5)CC4)cc3)ncc2c(=O)n1-c1ccccc1Cl
620
